- test_details: qHTS assay to identify small molecule agonists of the sonic hedgehog signaling (Shh) pathway - cell viability counter screen (AID 1259366); also: nearly all actives have a fitted effect of over 50% in size; also: potency is read from the fitted curve at half-maximal effect
- reported_conditions: NIH/3T3 Gli1-Luc viability, CellTiter-Fluor, 24 h; series mostly up to 92.4 µM
Inconclusive results are not listed. Activity calls are given as the source filed them. Calls follow the shape of the dose curve; as a rule, active = well fitted cell-killing curve with a large enough effect in the repeat runs; inconclusive = weak or mixed curves, or effect the other way; inactive = flat fitted curve, though single readings scatter.
measure_name: Potency

INSERT INTO results (compound, val) VALUES
  ('C=CC/C=C/C/C=C/C/C=C/C', 'inactive'),
  ('O=C(NO)c1ccccc1', '26 µM (active)'),
  ('NC(=O)C(=O)N/N=C/c1ccc([N+](=O)[O-])o1', 'inactive'),
  ('O=C(c1ccccc1)c1cc(Cl)ccc1O', 'inactive'),
  ('CN(C)CCN1CCOCC1', 'inactive'),
  ('CCc1c(C(=O)O)c(=O)cnn1-c1ccc(Cl)cc1', 'inactive'),
  ('COc1ccccc1OCCNCC(O)COc1cccc2[nH]c3ccccc3c12 (stereo not given)', '26.6 µM (active)'),
  ('CCCCCCCCCCCCCCNCCO', 'inactive'),
  ('CC=O', '28.6 µM (active)'),
  ('CC(C)c1ccccc1N', 'inactive'),
  ('Cc1cc(C)c(C=O)c(C)c1', 'inactive'),
  ('CCCC(C)CCC(C)=O (stereo not given)', 'inactive'),
  ('COc1cccc(O)c1', 'inactive'),
  ('CC(C)=CCCC(C)CCOC(=O)C(C)C (stereo not given)', 'inactive'),
  ('CN(Cc1cc(Br)cc(Br)c1N)C1CCCCC1', 'inactive');

----------
- test_details: qHTS assay to identify small molecule agonists of the estrogen receptor beta (ER-beta) signaling pathway - cell viability counter screen (AID 1259380); also: nearly all actives have a fitted effect of over 30% in size
- reported_conditions: ER-beta-bla HEK293T viability, CellTiter-Glo luminescence, 16 h; series mostly up to 92.4 µM
Inconclusive results are not listed. Activity calls are given as the source filed them. Calls follow the shape of the dose curve; as a rule, active = well fitted cell-killing curve with a large enough effect in the repeat runs; inconclusive = weak or mixed curves, or effect the other way; inactive = flat fitted curve, though single readings scatter.
Labels: active, inactive

INSERT INTO measurements (compound, qualitative_label) VALUES
  ('CCCCCCCCCCCCCc1ccccc1', 'inactive'),
  ('CCCCCCCCCCCCCCNCCO', 'active'),
  ('OCCN1CN(CCO)CN(CCO)C1', 'inactive'),
  ('CCCCOCC', 'inactive'),
  ('CC(C)C(=O)OCc1ccccc1', 'inactive'),
  ('O=C(O)Cc1ccc(OCCNC[C@H](O)c2ccccc2)cc1', 'inactive'),
  ('CC(C)(C)c1cc(CCC(=O)NCCCCCCNC(=O)CCc2cc(C(C)(C)C)c(O)c(C(C)(C)C)c2)cc(C(C)(C)C)c1O', 'inactive'),
  ('CC1CNCC(C)O1 (stereo not given)', 'inactive'),
  ('C/C=C/CO', 'inactive'),
  ('CN(C)CCOC(c1ccccc1)c1ccccc1 (tested in a mixture with another compound)', 'active'),
  ('COc1ccccc1C=O', 'inactive'),
  ('Cc1cccc(C)c1NC(=O)CN1CCN(CCCC(c2ccc(F)cc2)c2ccc(F)cc2)CC1', 'active'),
  ('C/C=C/C=N/NC(=O)c1ccncc1', 'inactive'),
  ('Brc1ccccn1', 'inactive'),
  ('CC(C)c1ccccc1N', 'inactive'),
  ('CCCCCCCCCCCCCCCC', 'inactive'),
  ('CO[Si](CCC1CCC2OC2C1)(OC)OC (stereo not given)', 'inactive'),
  ('CCNc1nc(NC(C)CC)nc(OC)n1 (stereo not given)', 'inactive'),
  ('CC(C)(C)C1=CC(=O)C=C(C(C)(C)C)C1=O', 'inactive'),
  ('c1cc(OCC2CO2)cc(OCC2CO2)c1 (stereo not given)', 'inactive'),
  ('CCC1CCCCC1', 'inactive'),
  ('CCCCOC(=O)C(C)CC (stereo not given)', 'inactive'),
  ('O=CC1CC1', 'inactive'),
  ('O=c1cccc[nH]1', 'inactive'),
  ('CC[N+](CC)(CC)Cc1ccccc1', 'inactive'),
  ('NCCCC(O)(P(=O)(O)O)P(=O)(O)O', 'inactive'),
  ('O=C(Nc1ccc(Cl)cc1)Nc1ccc(Cl)c(C(F)(F)F)c1', 'active'),
  ('CC(C)CCOCCC(C)C', 'inactive'),
  ('C[C@]12CC[C@H]3C(=CCc4cc(O)ccc43)[C@@H]1CCC2=O', 'active'),
  ('CCC(C)(C)c1cc(O)c(C(C)(C)CC)cc1O', 'active');
